# methodSummary: Concentration that induces 50% cell toxicity was determined using monolayers of uninfected HeLa cells
# Type: cell-based
# setupConditions: human, monolayers of uninfected HeLa cells; read-out: Tox50
# fulfilled = CC50 below 500 µM (exclusive); not fulfilled = CC50 at/above 500 µM

{"columns": ["compound", "discreteLabel"],
 "data": [
  ["CC(=O)N[C@H]1[C@@H](OC(=O)NS(=O)(=O)OC[C@H]2OC(n3ccc(=O)[nH]c3=O)[C@H](O)[C@@H]2O)O[C@H](COC(C)=O)[C@@H](OC(C)=O)[C@@H]1OC(C)=O (some centres undefined)", "not fulfilled"],
  ["CC1(C)O[C@@H]2[C@H](O1)[C@@H](COS(N)(=O)=O)O[C@H]2n1ccc(=O)[nH]c1=O", "not fulfilled"],
  ["Nc1nc2c(ncn2COCCO)c(=O)[nH]1", "not fulfilled"],
  ["O=C(NS(=O)(=O)OC[C@H]1OC(n2ccc(=O)[nH]c2=O)[C@H](O)[C@@H]1O)O[C@H]1O[C@H](COCc2ccccc2)[C@@H](OCc2ccccc2)[C@H](OCc2ccccc2)[C@H]1OCc1ccccc1 (some centres undefined)", "fulfilled"],
  ["CC1(C)O[C@@H]2[C@H](O1)[C@@H](COC(N)=O)O[C@H]2n1ccc(=O)[nH]c1=O", "not fulfilled"],
  ["CC1(C)O[C@@H]2[C@H](O1)[C@@H](COS(=O)(=O)NC(=O)O[C@H]1O[C@H](COCc3ccccc3)[C@@H](OCc3ccccc3)[C@H](OCc3ccccc3)[C@H]1OCc1ccccc1)O[C@H]2n1ccc(=O)[nH]c1=O", "fulfilled"],
  ["O=c1[nH]c(=O)n([C@H]2C[C@H](O)[C@@H](CO)O2)cc1/C=C/Br", "fulfilled"]
]}
